# SYSTEM_TESTED: huCTLA4 (Homo sapiens, UniProt P16410)
# Sequence (P16410 36-223): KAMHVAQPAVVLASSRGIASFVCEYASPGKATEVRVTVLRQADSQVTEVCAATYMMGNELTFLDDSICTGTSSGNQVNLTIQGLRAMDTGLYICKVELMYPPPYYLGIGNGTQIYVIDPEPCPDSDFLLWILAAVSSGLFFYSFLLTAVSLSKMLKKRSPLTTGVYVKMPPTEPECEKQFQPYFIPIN
# ASSAY_DETAILS: Flow binding to CHO cells stably expressing CTLA4
# Set-up: huCTLA4 and huPD-L1, full-length mammalian surface expression constructs were generated; expressed in transfected cells; host or cells: CHO cells, lentiviral transduction, sorted to >98% purity
# PROTOCOL_CONDITIONS: Table E11; 33.3 nM; listed as WT CD80 ECD-Fc = 1.0
TEST_READOUT: CTLA4 Fold change to WT CD80
Give a plain numeric answer without units written out.

H18Y/E35D/V68M/T79M/L85M (protein, UniProt P33681 35-288, looked up, variant H18Y E35D V68M T79M L85M) T-lymphocyte activation …: VIHVTKEVKEVATLSCGYNVSVEELAQTRIYWQKDKKMVLTMMSGDMNIWPEYKNRTIFDITNNLSIMILALRPSDEGMYECVVMKYEKDAFKREHLAEVTLSVKADFPTPSISDFEIPTSNIRRIICSTSGGFPEPHLSWLENGEELNAINTTVSQDPETELYAVSSKLDFNMTTNHSFMCLIKYGHLRVNQTFNWNTTKQEHFPDNLLPSWAITLISVNGIFVICCLTYCFAPRCRERRRNERLRRESVRPV = 9.3

# ---- query molecule ----
Per the record, H18Y/E35D/M47L/Y53F/V68M/A71G (protein, UniProt P33681 35-288, looked up, variant H18Y E35D M47L Y53F V68M A71G) T-lymphocyte activation …: VIHVTKEVKEVATLSCGYNVSVEELAQTRIYWQKDKKMVLTMMSGDLNIWPEFKNRTIFDITNNLSIMILGLRPSDEGTYECVVLKYEKDAFKREHLAEVTLSVKADFPTPSISDFEIPTSNIRRIICSTSGGFPEPHLSWLENGEELNAINTTVSQDPETELYAVSSKLDFNMTTNHSFMCLIKYGHLRVNQTFNWNTTKQEHFPDNLLPSWAITLISVNGIFVICCLTYCFAPRCRERRRNERLRRESVRPV has CTLA4 Fold change to WT CD80 of 0.1
